# targetSystem: T1, Ara h 2 (Arachis hypogaea allergen 2) (Arachis hypogaea, UniProt Q6PSU2 22-172)
# T1 construct: Peanut allergen; also called nAra h 2; natural Ara h 2
# T1 sequence: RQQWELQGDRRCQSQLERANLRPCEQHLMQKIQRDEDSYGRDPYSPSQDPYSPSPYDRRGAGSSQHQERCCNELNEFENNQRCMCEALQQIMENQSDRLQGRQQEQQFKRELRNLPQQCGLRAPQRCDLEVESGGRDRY
# experimentDescription: ELISA, antibody titrated on coated Ara h 2
# Procedure: Monoclonal antibodies 2F8, 7G6, 17H9 and 15E3 were tested for their specificity against the major peanut allergens Ara h 1, 2, 3, and 6 by ELISA (enzyme linked immunosorbent assay). […] The read-out was performed by adding anti-hu-IgG-HRP (anti-human-IgG horseradish peroxidase; Jackson ImmunoResearch, West Grove, PA, USA) for 1 h at room temperature. […]
Measured EC50 of individual entries
Give the value, in units of ng/mL, as a plain number.

Worked examples follow.
2F8 (antibody, V domains shown, Fully human monoclonal antibody, wild-type variable regions; tested as IgG; also called MY006-2F8) VH: EVQLVESGGGLVKPGGSLRLSCAASGFIFSDYNMNWVRQAPGKGLEWVSSITRSSRTIYYADSVKGRFTISRDNAKNSLHLQMNSLRDADTAVYYCAREDFDVSTGPYYMDVWGNGTTVIVSS VL: EIVLTQSPGTLSLSPGERATLSCRASQSVSNMFLVWYQQKPGQAPRLLMYGASTRATDIPDRFSGSGSGTDFTLTISRLEPEDFAVYYCQQNGNSPYTFGQGTKLEIK; 3.31
7G6 (antibody, V domains shown, Fully human monoclonal antibody, wild-type variable regions; tested as IgG; also called MY006-7G6) VH: QVQLVESGGGVVQPGRSLRLSCAASGIAFNDYTMHWVRRSPDKGLEWVAAISYGGTNKYYADSVKGRFTISRDSSKNTLFLQMDSLRVEDTAVYYCARDSGYRSLLHWGQGTLVTVSS VL: EIVLTQSPLSLPVTPGEPASISCRSSQSLVHRNGYNYLDWYLQKPGQSPQLLIYMASKRASGVPDRFSGSGSGTEFTLKISRVEAEDVGIYYCMQALQTWTFGQGTKVEVN; 0.629
17H9 (antibody, V domains shown, Fully human monoclonal antibody, wild-type variable regions; tested as IgG (detected with anti-human IgG); also called MY006-17H9) VH: QVQLEEYGGGVVQPGRSLRLSCVASGSTLGTYGMHWVRQAPGKGLEWVAIISPDGGHQDYADPVRGRFTVSRDNSKNTLYLQMDNLRVEDTAVYYCATTLCARTDCTWVRSDSWGQGTLVTVSS VL: ANVLTQSPGTLSLSPGERATLSCRASQRVSGDYLAWYQQKRGQAPRLLIYGASSRATGIPDRFSGSGSGTDFTLTISRLEPEDFAVYYCQHYNGPPVTFGQGTKLEIK; 2.2

// switching to the query binder
Look up EC50: 15E3 (antibody, V domains shown, Fully human monoclonal antibody, wild-type variable regions; also called MY006-15E3; 15E3-human IgG1) VH: EVQLVESGGALVQPGGSLRLSCAASGFKFSTFYMTWIRQAPGKGLEWVANIKQDGSEKDYLDSVRGRFNISRDNAKSVLYLQMNTLSADDTGVYYCTRNGLQDSYSGDFFDHWGQGILVTVSS VL: QSVLTQPPSISAAPGQKVTISCSGTGSNIGHNYVSWYQQLPRTAPRLLIFDNTKRPSGIPDRFSGSKSGSSATLGITGLQTGDEAHYFCATWDADLSAVLFGGGTKLTVL
3.78

Origin of measurements: patent US20250320282A1
